Data provenance is ChEMBL document CHEMBL3137667.

- ASSAY PROTOCOL: Highest frequency of acute liver toxicity observed during clinical trials, expressed as a percentage. [column '% AIGUE' in source]
- PROTOCOL CONDITIONS: human
// Hepatotoxicity (acute) lookup, one value per entry
Numbers only here, please. The scale is %.

Worked cases, Hepatotoxicity (acute) given:
[
  {
    "COMPOUND": "Nc1c2c(nc3ccccc13)CCCC2O (stereo not given)",
    "METRIC": "Hepatotoxicity (acute)",
    "MEASURED RESULT": 7.3
  },
  {
    "COMPOUND": "CCC(=O)[C@@]1(C)CC[C@H]2[C@@H]3CCC4=CC(=O)CCC4=C3CC[C@@]21C",
    "METRIC": "Hepatotoxicity (acute)",
    "MEASURED RESULT": 0
  },
  {
    "COMPOUND": "CC[C@@H](CO)NCCN[C@@H](CC)CO",
    "METRIC": "Hepatotoxicity (acute)",
    "MEASURED RESULT": 0
  }
]

# return recorded Hepatotoxicity (acute) for entry CSc1nc2cc(Cl)c(Oc3cccc(Cl)c3Cl)cc2[nH]1
0.7

Annotate the compound C[C@]12CC[C@@H]3c4ccc(O)cc4CC[C@H]3[C@@H]1CC[C@@H]2O with its measured Hepatotoxicity (acute).
0

Could you please provide reported Hepatotoxicity (acute) for N[C@@H](Cc1ccc(O)c(O)c1)C(=O)O ? Thanks!
3.3

Please list Hepatotoxicity (acute) recorded for the compound O=C(O)[C@@H](S)[C@@H](S)C(=O)O
0

Specify Hepatotoxicity (acute) for CN1CCN(CC(=O)N2c3ccccc3C(=O)Nc3cccnc32)CC1 [PIRENZEPINE] and stop.
0

Give the reported Hepatotoxicity (acute) for this compound. Cc1ccc(C(=O)Nc2ccc(S(=O)(=O)O)c3cc(S(=O)(=O)O)cc(S(=O)(=O)O)c23)cc1NC(=O)c1cccc(NC(=O)Nc2cccc(C(=O)Nc3cc(C(=O)Nc4ccc(S(=O)(=O)O)c5cc(S(=O)(=O)O)cc(S(=O)(=O)O)c45)ccc3C)c2)c1
6.3

Annotate the compound CN1C(=O)CCS(=O)(=O)C1c1ccc(Cl)cc1 (stereo not given) with its measured Hepatotoxicity (acute).
0
